Tested on: Calu‐3 cells
procedureText: Cytotoxicity in Calu-3 cells without virus (XTT)
conditionInfo: Calu‐3 cells, no virus, three days

molecule	targetEntity	CC50
CCC(CC)COC(=O)[C@H](C)N[P@](=O)(OC[C@H]1O[C@@](C#N)(c2ccc3c(N)ncnn23)[C@H](O)[C@@H]1O)Oc1ccccc1 [Remdesivir, remdesivir, reference compound]	Calu‐3 cells	> 5 µM

----------
targetEntity: SARS‐CoV‐2 RdRp complex (nsp12, nsp7, nsp8) (Severe acute respiratory syndrome coronavirus 2)
procedureText: Fluorescence-based RdRp polymerase assay (SYBR Green I RNA extension)
Format: biochemical
conditionInfo: 50 min, read-out: residual activity (RA) of the SARS‐CoV‐2 RdRp complex
property: remaining activity at 10 µM (%)

compound	property	numericResult
COC(=O)c1cc(NC(=O)Nc2cccc([N+](=O)[O-])c2)cc(C(=O)O)c1 [Compound 20]	remaining activity at 10 µM	100
O=C(Nc1cc(C(F)(F)F)cc(C(F)(F)F)c1)Nc1ccc(Br)cc1-c1nnn[nH]1 [Endovion, endovion, reference compound]	remaining activity at 10 µM	40
COC(=O)c1cc(NC(=O)Nc2cccc(C#N)c2)cc(C(=O)OC)c1 [Compound 6]	remaining activity at 10 µM	100
